# SUBJECT_OF_TEST: hPAD4 (Homo sapiens)
# Sequence (Q9UM07 whole entry): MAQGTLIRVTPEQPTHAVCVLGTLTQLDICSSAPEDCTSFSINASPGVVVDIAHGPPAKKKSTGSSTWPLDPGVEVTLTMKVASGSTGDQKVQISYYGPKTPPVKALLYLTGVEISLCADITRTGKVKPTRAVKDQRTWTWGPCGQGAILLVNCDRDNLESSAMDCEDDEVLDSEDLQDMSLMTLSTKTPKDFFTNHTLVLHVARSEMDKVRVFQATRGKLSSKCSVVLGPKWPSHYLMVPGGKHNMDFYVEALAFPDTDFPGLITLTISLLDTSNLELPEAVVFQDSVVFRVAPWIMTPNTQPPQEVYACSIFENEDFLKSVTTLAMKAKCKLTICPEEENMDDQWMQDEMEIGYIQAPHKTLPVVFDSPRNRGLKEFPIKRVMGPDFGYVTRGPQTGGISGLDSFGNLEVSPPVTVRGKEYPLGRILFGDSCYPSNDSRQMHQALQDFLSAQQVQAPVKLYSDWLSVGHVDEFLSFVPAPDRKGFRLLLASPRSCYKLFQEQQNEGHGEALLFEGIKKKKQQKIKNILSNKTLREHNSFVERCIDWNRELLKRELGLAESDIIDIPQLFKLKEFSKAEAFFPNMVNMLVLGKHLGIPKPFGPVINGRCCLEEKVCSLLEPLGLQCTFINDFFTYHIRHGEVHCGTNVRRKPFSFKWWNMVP
# ASSAY_NOTES: PAD4 inhibition assay, RapidFire mass spectrometry (hPAD4 RFMS)
# Format: biochemical
# ASSAY_SETUP: 100 nM hPAD4 enzyme, 50 μM substrate peptide, 65 mins at 37° C.; read-out: hPAD4 RFMS IC50
Structures can show the parent of a compound that is named as a salt.
VALUE_KIND: IC50

Take a look at these entries with their results.
>>> result("Cn1c(-c2cc3cccnc3n2CC2CC2)nc2cc(C(=O)N3CCC4CCNC4C3)cnc21 (stereo not shown) [Compound I-8, hydrochloride]")
"5 to 10 µM"
>>> result("CCn1c(-c2nc3cc(C(=O)N4C[C@H]5CC[C@@H]4[C@@H]5N)cnc3n2CCOC)cc2cccnc21")
"1 to 5 µM"
>>> result("Cn1c(-c2cc3cccnc3n2CC(F)(F)F)nc2cc(C(=O)N3CC[C@H]4CCN[C@H]4C3)cnc21 [Compound I-20]")
"≥ 10 µM"
>>> result("Cn1c(-c2cc3cccnc3n2CC(F)(F)F)nc2cc(C(=O)N3CCC[C@@H](N)C3)cnc21")
"≥ 10 µM"

Look up and report measured IC50 for this entry: Cn1c(-c2cc3cccnc3n2CC2CC2)nc2cc(C(=O)N3C[C@@H](N)C[C@H](F)C3)cnc21
1 to 5 µM

Look up and report measured IC50 for this entry: CO[C@]1(C)C[C@H](Cn2c(-c3cc4cccnc4n3CC3CC3)nc3cc(C(=O)N4C[C@H]5CC[C@@H]4[C@@H]5N)cnc32)C1
≤ 1 µM

Look up and report measured IC50 for this entry: CCn1c(-c2nc3cc(C(=O)N4C[C@H]5CC[C@@H]4[C@@H]5N)cnc3n2C[C@H]2C[C@@](C)(OC)C2)cc2ccc(OC)nc21
≤ 1 µM

meta.source: patent US20170166592A1
